Recorded IC50, one value per entry.
# Test system: PC-3
# assay.name: Prostate cancer cell cytotoxicity, crystal violet assay, PC-3
# Type: cell-based, human
# condition.description: Homo sapiens, PC-3, read-out: IC50 Values, PC-3/DMEM
Express your answer in µM, writing the number without its unit.

compound	IC50 [µM]
COc1cccc2c1C(=O)c1c(O)c3c(c(O)c1C2=O)C[C@@](O)(C(C)=O)C[C@@H]3O[C@H]1C[C@H](N)[C@H](O)[C@H](C)O1 [DAUN, daunorubicin, reference compound]	0.02

Let's switch to this compound now.
Input COc1cccc2c1C(=O)c1c(O)c3c(c(O)c1C2=O)CC(O)(C(=O)CO)CC3OC1CC2C(OCN2CN2CO[C@@H]3C(C)O[C@H](OC4CC(O)(C(=O)CO)Cc5c(O)c6c(c(O)c54)C(=O)c4c(OC)cccc4C6=O)CC32)C(C)O1 (some centres unmarked) . Output IC50: 0.0045

----------
# assay.name: Hydrolysis in aqueous phosphate buffer, HPLC
# Format: physicochemical
# condition.description: serum; read-out: estimated half-life
readout.label: half-life

Input COc1cccc2c1C(=O)c1c(O)c3c(c(O)c1C2=O)CC(O)(C(=O)CO)CC3OC1CC2C(OCN2CN2CO[C@@H]3C(C)O[C@H](OC4CC(O)(C(=O)CO)Cc5c(O)c6c(c(O)c54)C(=O)c4c(OC)cccc4C6=O)CC32)C(C)O1 (stereo partly shown) [DOXF] . Output half-life: < 10 min
